I'd be grateful if you could share measured CC50 at 5 days for these entries.
- testMethodNotes: Cytotoxicity assay in MT-4 cells
- Type: cell-based
- experimentalContext: human, uninfected MT-4 cells, 5 days, Cell Titer Glo; read-out: CC50
One number for each entry, in µM.

Reference set (3 entries):
| chemicalStructure | readoutType | measureUnit | val |
| --- | --- | --- | --- |
| CO[C@H]1C[C@@H](C)N2CN(C[C@H]1OC)C(=O)c1c(O)c(=O)c(C(=O)NCc3ccc(F)cc3F)cn12 | CC50 at 5 days | µM | 20.3 |
| CC[C@@H]1C=C[C@H](C)N2CN1n1cc(C(=O)NCc3c(F)cc(F)cc3F)c(=O)c(O)c1C2=O | CC50 at 5 days | µM | 13.8 |
| C[C@@H]1C=C[C@H](CF)N2CN1n1cc(C(=O)NCc3c(F)cc(F)cc3F)c(=O)c(O)c1C2=O | CC50 at 5 days | µM | 13.3 |

Turning to the following molecule.
Input: Value lookup for CC50 at 5 days; key = CO[C@@H]1CC[C@H](C)N2CN1n1cc(C(=O)NCc3c(F)cc(F)cc3F)c(=O)c(O)c1C2=O
Output: 11.5
